Test: EBV LMP1-driven NF-kappaB luciferase reporter inhibitors, primary screen, cell-based, luminescence, single point (AID 504558)
Conditions: LMP1-induced NF-kappaB luciferase reporter cells, at 12.5 µM
The whole screen tested about 350,000 compounds, of which about 2,400 (0.69%) were called active. Cut-off read from the data, not from the text of the source: active = inhibition above about 41%; inconclusive = no clear call, values can overlap the other calls; inactive = below that. The sample as a whole holds a higher share of actives than the screen did.
Labels: active, inactive

{"MOLECULE": "CC(C)C1CCN(C(=O)C2CCC(=O)N(C3CCCCCC3)C2)CC1 (stereo unspecified)", "ASSIGNED CATEGORY": "inactive"}
{"MOLECULE": "CC1=C(C(=O)Nc2cccc(C(=O)NCC(C)c3ccccc3)c2)SCCO1 (stereo unspecified)", "ASSIGNED CATEGORY": "inactive"}
{"MOLECULE": "CC1CCCC(C)N1C(=O)COC(=O)c1ccccc1C(=O)c1ccccc1 (stereo unspecified)", "ASSIGNED CATEGORY": "inactive"}
{"MOLECULE": "C[C@H](CO)N1C[C@H](C)[C@H](CN(C)C(=O)Nc2ccc3c(c2)OCO3)Oc2ncc(Br)cc2C1=O", "ASSIGNED CATEGORY": "inactive"}
{"MOLECULE": "Cc1ccc(C2=C/C(=C\\c3cccnc3)C(=O)O2)cc1", "ASSIGNED CATEGORY": "active"}
{"MOLECULE": "COc1ccc(CN2C(=O)C(CC(=O)NC3CCCCC3)CC(C(=O)N3CCOCC3)=C2C)cc1 (stereo unspecified)", "ASSIGNED CATEGORY": "inactive"}
{"MOLECULE": "CN(C)/C=C1\\C=C(c2ccccc2)OC1=O", "ASSIGNED CATEGORY": "inactive"}
{"MOLECULE": "Cc1ccccc1C1=N/C(=C/c2cccnc2)C(=O)O1", "ASSIGNED CATEGORY": "inactive"}
{"MOLECULE": "Cc1cc2ccccc2n1CCNC(=O)COc1ccc2ccccc2c1", "ASSIGNED CATEGORY": "active"}
{"MOLECULE": "CCN(CC)C(=O)N(CC)Cc1ccccc1", "ASSIGNED CATEGORY": "inactive"}
{"MOLECULE": "CCN(Cc1ccncc1)C(=O)CCc1ccccc1", "ASSIGNED CATEGORY": "active"}

###

Experiment: EBV LMP1-driven NF-kappaB luciferase reporter inhibitors, primary screen, cell-based, luminescence, single point (AID 504558)
Conditions: LMP1-induced NF-kappaB luciferase reporter cells, at 12.5 µM, hits give high values
Screen size: about 350,000 compounds; about 2,400 (0.69%) were called active. What follows is part of a selection rich in actives, with near analogues and random picks from the rest.
Tag: True if measured inhibition is not below 10%, False if it is.

{"COMPOUND": "COc1ccccc1NC(=O)C(CC(=O)O)Cc1cc(C)cc(C)c1 (centres undefined)", "ASSIGNED CATEGORY": "False"}
{"COMPOUND": "N#CCCN(C(=S)Nc1ccc(Cl)c(Cl)c1)C1CCCCC1", "ASSIGNED CATEGORY": "False"}
{"COMPOUND": "CCN1C(=O)[C@H]2[C@@H](c3ccc(C(F)(F)F)cc3)N[C@]3(CCCN(Cc4ccc(Br)cc4)C3=O)[C@H]2C1=O", "ASSIGNED CATEGORY": "True"}
{"COMPOUND": "Oc1c(Cl)cc(Cl)c(Cl)c1Cc1c(O)c(Cl)cc(Cl)c1Cl", "ASSIGNED CATEGORY": "True"}
{"COMPOUND": "CCc1noc(C)c1C(=O)OCC(=O)c1ccc(NC(=O)CC(C)C)cc1", "ASSIGNED CATEGORY": "False"}
{"COMPOUND": "CNC(=O)C[C@H]1C(=O)N(Cc2ccccc2)C[C@@H]1CSC", "ASSIGNED CATEGORY": "False"}
{"COMPOUND": "O[C@@H]1C[C@H](c2ccccc2)N(Cc2cccs2)C[C@H]1n1cc(C2CC2)nn1", "ASSIGNED CATEGORY": "False"}
{"COMPOUND": "CCN(CC)c1ccc(/C=N/NC(=O)c2cnccn2)c(O)c1", "ASSIGNED CATEGORY": "True"}
{"COMPOUND": "CCN1C(=O)[C@H]2[C@@H](c3ccccc3)N[C@]3(CCCN(Cc4ccc(C)cc4)C3=O)[C@H]2C1=O", "ASSIGNED CATEGORY": "False"}
{"COMPOUND": "O=C(c1cc(-c2cccc(O)c2)on1)N1CCc2ccccc2C1", "ASSIGNED CATEGORY": "False"}
{"COMPOUND": "CC(C)CCNC(=O)CC1C(=O)N(Cc2ccccc2)C(C)c2nc3ccccc3n21 (centres undefined)", "ASSIGNED CATEGORY": "True"}
{"COMPOUND": "CCOc1ccc(N/C=C/C(=O)c2cc(OC)c(OC)c(OC)c2)cc1", "ASSIGNED CATEGORY": "False"}
{"COMPOUND": "Cc1nonc1C(=O)N/N=C/c1ccc(O)cc1", "ASSIGNED CATEGORY": "False"}
{"COMPOUND": "Cc1ccc(S(=O)(=O)N2C[C@H]3n4c(=O)ccc(=O)n4C[C@H](OC(=O)NC4CCCC4)[C@@]3(O)C2)cc1", "ASSIGNED CATEGORY": "False"}
{"COMPOUND": "Cc1cc(=O)[nH]c(=S)[nH]1", "ASSIGNED CATEGORY": "True"}
{"COMPOUND": "O=C(O)CCCCCNc1ncnc2ccc(Br)cc12", "ASSIGNED CATEGORY": "False"}
{"COMPOUND": "CCOc1ccc(N/C=C/C(=O)c2ccccc2)cc1", "ASSIGNED CATEGORY": "True"}
{"COMPOUND": "O=C1c2ccccc2C(O)N1Cc1ccccc1 (centres undefined)", "ASSIGNED CATEGORY": "True"}
{"COMPOUND": "COc1ccccc1NC(=O)c1ccc2nc(N3C(=O)CCC3=O)sc2c1", "ASSIGNED CATEGORY": "False"}
{"COMPOUND": "COc1ccccc1-n1c(SCC(=O)Nc2ccc(Cl)cc2)nc(O)c(Cc2ccccc2)c1=O", "ASSIGNED CATEGORY": "False"}
{"COMPOUND": "O=C(C[n+]1ccccc1)N/N=C/c1ccc(O)cc1", "ASSIGNED CATEGORY": "True"}
{"COMPOUND": "O=C(c1cc(-c2ccc(O)cc2)on1)N1CCOCC1", "ASSIGNED CATEGORY": "True"}
{"COMPOUND": "CCn1c(SCC(=O)N2CCCC2=O)nc2ccccc21", "ASSIGNED CATEGORY": "False"}
{"COMPOUND": "CC(=O)NNC(=O)c1csc(Cc2c(Cl)sc3ccc(Cl)cc23)n1", "ASSIGNED CATEGORY": "False"}
{"COMPOUND": "COc1ccc(Nc2ncnc3ccc(Br)cc23)c(OC)c1", "ASSIGNED CATEGORY": "True"}
{"COMPOUND": "O[C@H]1CN(Cc2cccs2)[C@@H](c2ccc(Cl)cc2)C[C@@H]1n1cc(C2CC2)nn1", "ASSIGNED CATEGORY": "False"}
{"COMPOUND": "O=C(Nc1cccc2ccccc12)NC1CC1", "ASSIGNED CATEGORY": "False"}
{"COMPOUND": "COc1cccc(/C=N\\Nc2nncc(-c3ccccc3)n2)c1", "ASSIGNED CATEGORY": "False"}
{"COMPOUND": "CCOc1cc(/C=C(/C#N)c2ccc(Cl)cc2)cc(Cl)c1OCC(=O)O", "ASSIGNED CATEGORY": "True"}
{"COMPOUND": "CSc1cc(C)[nH]c(=O)n1", "ASSIGNED CATEGORY": "False"}
{"COMPOUND": "Cc1cc(=O)cc(C)[nH]1", "ASSIGNED CATEGORY": "False"}
{"COMPOUND": "CN(C)C(CNC(=O)c1cc(Br)c(Br)s1)c1ccco1 (centres undefined)", "ASSIGNED CATEGORY": "False"}
{"COMPOUND": "C/C(=N\\Nc1nncc2ccccc12)c1ccc(Cl)c([N+](=O)[O-])c1", "ASSIGNED CATEGORY": "False"}
{"COMPOUND": "COc1ccc(NC(=O)C/C(C)=N/NC(=O)c2cnccn2)cc1Cl", "ASSIGNED CATEGORY": "False"}
{"COMPOUND": "C[C@H]1CN([C@@H](C)CO)C(=O)CCCn2cc(nn2)CO[C@@H]1CN(C)S(=O)(=O)c1ccccc1C#N", "ASSIGNED CATEGORY": "False"}
{"COMPOUND": "NC(=S)NN=Cc1ccc(OC(=O)COc2cc(Cl)c(Cl)cc2Cl)cn1", "ASSIGNED CATEGORY": "True"}
{"COMPOUND": "CCOC(=O)C1CCN(C(=O)CC2C(=O)N(Cc3ccccc3)C(C)c3nc4ccccc4n32)CC1 (centres undefined)", "ASSIGNED CATEGORY": "True"}
{"COMPOUND": "CCC(C)NC(=O)C1c2ccccc2C(=O)N1Cc1ccccc1 (centres undefined)", "ASSIGNED CATEGORY": "True"}
{"COMPOUND": "COc1ccc(-c2cnc3c(c2)C(=O)N([C@H](C)CO)C[C@@H](C)[C@H](CN(C)Cc2ccccc2)O3)cc1", "ASSIGNED CATEGORY": "False"}
{"COMPOUND": "CC1=C(C(=O)N(C)C)CC(CC(=O)NCCN2CCOCC2)C(=O)N1Cc1ccccc1 (centres undefined)", "ASSIGNED CATEGORY": "False"}
{"COMPOUND": "CSc1nc(-c2ccccc2)nc(C(Cl)Cl)n1", "ASSIGNED CATEGORY": "True"}
{"COMPOUND": "O=C(OCC(=O)N1CCCCCC1)c1cccc(Cl)c1Cl", "ASSIGNED CATEGORY": "False"}
{"COMPOUND": "Nc1nnn(CC(=O)N/N=C/c2ccc(O)cc2)n1", "ASSIGNED CATEGORY": "False"}
{"COMPOUND": "CNC(=O)c1csc(-c2ccccc2)n1", "ASSIGNED CATEGORY": "False"}

The values you see were collected from PubChem BioAssay AID504558.
